Reported Target Concentration 100 (phage screen NGS readout) values for a set of sequences
- system_under_test: beta-catenin (Homo sapiens, UniProt P35222)
- Construct: made in house; host or cells: E. coli BL21 (DE3) pLysS
- Sequence (P35222 134-665): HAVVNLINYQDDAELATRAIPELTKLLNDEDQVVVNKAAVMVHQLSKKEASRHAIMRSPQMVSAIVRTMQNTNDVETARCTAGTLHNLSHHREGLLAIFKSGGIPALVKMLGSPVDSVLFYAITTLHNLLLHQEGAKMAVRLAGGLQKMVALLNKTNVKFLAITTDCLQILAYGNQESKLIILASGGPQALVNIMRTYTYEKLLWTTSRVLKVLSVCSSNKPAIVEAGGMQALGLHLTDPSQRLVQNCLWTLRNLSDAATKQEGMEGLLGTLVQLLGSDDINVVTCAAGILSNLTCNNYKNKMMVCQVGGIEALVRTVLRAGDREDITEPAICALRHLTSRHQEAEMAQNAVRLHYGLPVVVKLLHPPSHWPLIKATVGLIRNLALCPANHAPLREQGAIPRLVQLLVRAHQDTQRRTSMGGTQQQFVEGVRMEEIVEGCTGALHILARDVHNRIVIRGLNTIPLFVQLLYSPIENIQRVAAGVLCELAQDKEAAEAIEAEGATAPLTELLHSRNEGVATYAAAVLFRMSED
- experiment_description: Phage Library Screening with NGS, beta-catenin
- Assay type: binding
- condition_context: beta-catenin target concentration 100; no competitor
outcome_measure: Target Concentration 100 (phage screen NGS readout)

>  <seq_string>
DPAVIQCYQAAFHCDYQ

>  <observed>
0

$$$$
>  <seq_string>
DPAEAICILAAHECWWD

>  <observed>
139

$$$$
>  <seq_string>
DPAEHDCMLAAHFCRHF

>  <observed>
242

$$$$
>  <seq_string>
DPAILDCQIAAIECEFA

>  <observed>
76

$$$$
>  <seq_string>
DPAVLDCHIAALDCHAH

>  <observed>
0

$$$$
>  <seq_string>
DPAILECHVAALDCQMW

>  <observed>
40

$$$$
>  <seq_string>
DPAEWICEHAALLCSVL

>  <observed>
11

$$$$
>  <seq_string>
DPAILECYEAAFECQYM

>  <observed>
20

$$$$
>  <seq_string>
DPADNECILAAHICTLA

>  <observed>
24

$$$$
>  <seq_string>
DPAHLMCHYAAWDCRDE

>  <observed>
11

$$$$
>  <seq_string>
DPAEWQCEHAALLCEQQ

>  <observed>
907

$$$$
>  <seq_string>
DPAALSCYQAAFHCQYY

>  <observed>
1

$$$$
>  <seq_string>
DPAHWVCEHAALNCDQN

>  <observed>
47

$$$$
>  <seq_string>
DPAEVECMLAAHVCRAF

>  <observed>
67

$$$$
>  <seq_string>
DPAWILCDWAAMHCELV

>  <observed>
2

$$$$
>  <seq_string>
DPAWQNCTWAAFHCELL

>  <observed>
52

$$$$
>  <seq_string>
DPAHWSCEWAAEHCRLI

>  <observed>
0

$$$$
>  <seq_string>
DPAVIACYDAAFVCEYF

>  <observed>
0

$$$$
>  <seq_string>
DPAESDCILAAYICYVE

>  <observed>
22

$$$$

Data provenance is patent US20240376151A1.
